Where these numbers come from: patent US20220112288A1

For each record, write down the corresponding Kd.
- target or system: T1, Recombinant human CD4 (R&D Systems, Cat. 10327-CD) (human, UniProt P01730 26-390, limits assumed)
- T1 construct: Bought protein; also called huCD4
- assay details: BLI (Octet Red 384), non-clonal supernatant captured on AMC sensors, 100 nM human CD4, 1:1 local fit;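 also: hybridoma antibodies from supernatants, one CD4 concentration giving single-point kinetics per supernatant, with curves fitted over both association and dissociation phases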

75110_01H18A (antibody, V domains shown, Tested as non-clonal AlivaMab Mouse hybridoma supernatant (human variable regions and human kappa, mouse Fc); also called ADS75110 non-clonal supernatant 01H18A) VH: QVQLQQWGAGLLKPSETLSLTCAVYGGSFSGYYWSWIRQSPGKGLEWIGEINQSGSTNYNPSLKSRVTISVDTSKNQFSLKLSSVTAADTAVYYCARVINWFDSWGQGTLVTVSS VL: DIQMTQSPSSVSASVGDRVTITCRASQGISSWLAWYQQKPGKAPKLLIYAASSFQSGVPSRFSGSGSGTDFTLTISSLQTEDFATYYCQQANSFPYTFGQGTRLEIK : 0.902 nM

# batch: return Kd for each of the 2 binders below
1. 75110_10K21A (antibody, V domains shown, Tested as non-clonal AlivaMab Mouse hybridoma supernatant (human variable regions and human kappa, mouse Fc); also called ADS75110 non-clonal supernatant 10K21A) VH: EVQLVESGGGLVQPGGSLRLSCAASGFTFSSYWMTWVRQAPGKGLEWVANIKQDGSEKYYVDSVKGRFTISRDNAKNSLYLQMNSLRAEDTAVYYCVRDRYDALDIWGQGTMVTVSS VL: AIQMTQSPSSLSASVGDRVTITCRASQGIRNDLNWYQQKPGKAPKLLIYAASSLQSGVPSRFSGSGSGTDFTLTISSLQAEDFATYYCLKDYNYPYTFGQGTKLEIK
2. 75110_04P06A (antibody, V domains shown, Tested as non-clonal AlivaMab Mouse hybridoma supernatant (human variable regions and human kappa, mouse Fc); also called ADS75110 non-clonal supernatant 04P06A) VH: EVQLVESGGGLVQPGGSLRLSCAASGFTFSNYDMHWVRQATGKGLEWVSTIGTAGDTYYPGSVKGRFTISRENAKNSLYLQMNSLRAGDTAVYYCARGGDYYYGMDVWGQGTTVTVSS VL: EIVLTQSPDTLSLSPGERATLSCRASQSLSSVYLAWYQQKPGQAPRLLIYGASSRATGIPDRFSGSGSGTDFTLTINRLEPEDFVVYYCQQYGSSPFTFGPGTKVDIK

RESULT:
1. 2.66 nM
2. < 0.001 nM
